Consider the following compounds; for each one, report its IC50.
tested on: L1210; assay: In vitro antitumor activity against murine lymphoma L1210 cells by MTT assay.; format: functional, cell-based; conditions: Mus musculus
Could you give me the number in µM? Just the number is fine.

Exam item: Assign IC50 to the following record: `CCCCCCCCCCCCn1c2nc(=O)n(C)c(=O)c-2cc2ccc([N+](=O)[O-])cc21`
Marked response: 5.2

Exam item: Assign IC50 to the following record: `CCCCCCCCCCCCn1c2nc(=O)[nH]c(=O)c-2cc2ccc([N+](=O)[O-])cc21`
Marked response: 2.5

Exam item: Assign IC50 to the following record: `CCCCCCCCCCCCn1c2nc(=O)[nH]c(=O)c-2cc2cccc([N+](=O)[O-])c21`
Marked response: 1.8

Exam item: Assign IC50 to the following record: `CCCCCCCCn1c2nc(=O)n(-c3ccccc3)c(=O)c-2cc2ccc([N+](=O)[O-])cc21`
Marked response: 2.6

Exam item: Assign IC50 to the following record: `CCCCCCCCn1c2nc(=O)n(-c3ccccc3)c(=O)c-2cc2cccc([N+](=O)[O-])c21`
Marked response: 1.5

Exam item: Assign IC50 to the following record: `CCCCCCCCn1c2nc(=O)n(CC(=O)OCC)c(=O)c-2cc2ccc([N+](=O)[O-])cc21`
Marked response: 8.4

Exam item: Assign IC50 to the following record: `CCCCCCCCCCCCn1c2nc(=O)n(C)c(=O)c-2cc2cc([N+](=O)[O-])ccc21`
Marked response: 21.6

Exam item: Assign IC50 to the following record: `CCCCCCCCn1c2nc(=O)n(-c3ccccc3)c(=O)c-2cc2c([N+](=O)[O-])cccc21`
Marked response: 2.6

Exam item: Assign IC50 to the following record: `CCCCCCCCn1c2nc(=O)n(CC(=O)OCC)c(=O)c-2cc2cccc([N+](=O)[O-])c21`
Marked response: 4

Exam item: Assign IC50 to the following record: `CCCCCCCCn1c2nc(=O)n(CC(=O)OCC)c(=O)c-2cc2cc([N+](=O)[O-])ccc21`
Marked response: 12

Exam item: Assign IC50 to the following record: `CCCCCCCCCCCCn1c2nc(=O)[nH]c(=O)c-2cc2cc([N+](=O)[O-])ccc21`
Marked response: 6.8

Exam item: Assign IC50 to the following record: `CCCCCCCCCCCCn1c2nc(=O)n(C)c(=O)c-2cc2cccc([N+](=O)[O-])c21`
Marked response: 7.8

Exam item: Assign IC50 to the following record: `CCCCCCCCCCCCn1c2nc(=O)[nH]c(=O)c-2cc2c([N+](=O)[O-])cccc21`
Marked response: 0.4

Exam item: Assign IC50 to the following record: `CCCCCCCCn1c2nc(=O)n(CC(=O)OCC)c(=O)c-2cc2c([N+](=O)[O-])cccc21`
Marked response: 3

Exam item: Assign IC50 to the following record: `CCCCCCCCCCCCn1c2nc(=O)n(C)c(=O)c-2cc2c([N+](=O)[O-])cccc21`
Marked response: 1.6

Exam item: Assign IC50 to the following record: CO[C@@]12[C@H](COC(N)=O)C3=C(C(=O)C(C)=C(N)C3=O)N1C[C@@H]1N[C@@H]12 [MITOMYCIN]
Marked response: 0.6

Exam item: Assign IC50 to the following record: `CCCCCCCCn1c2nc(=O)n(-c3ccccc3)c(=O)c-2cc2cc([N+](=O)[O-])ccc21`
Marked response: 9.6

Origin of measurements: ChEMBL document CHEMBL1128820
